From: the kinase profiling compilation of Christmann-Franck et al. (2016)

molecular target: STK3 (human); assay: radiometric filter-binding kinase assay; settings: compound 1.0 µM
Give residual activity for every item shown.
Numbers only, in %.

Example entries and their recorded answers appear below.
| Molecule | Experimental System | Test Readout | Data Value |
| --- | --- | --- | --- |
| Cc1cc(NC(=O)c2cccc(NC(=O)/C=C/CN(C)C)c2)ccc1Nc1nccc(-c2cccnc2)n1 | STK3 (human) | residual activity | 72 |
| Cc1cccc(-c2nn(C(=S)Nc3ccccc3)cc2-c2ccnc3ccccc23)n1 | STK3 (human) | residual activity | 100 |
| CCCC(CCC)C(=O)O | STK3 (human) | residual activity | 90 |
| C=C1C(=O)OC2C1CC/C(C)=C/CCC1(C)OC21 (centres undefined) | STK3 (human) | residual activity | 118 |

Please look at the items below and tell me residual activity for each one, in order.
1. O=C1Nc2nc(-c3c(O)cccc3OCC3CC3)cc(C3CCCNC3)c2CO1 (centres undefined)
2. Cn1nc(Nc2ccc(F)cc2)c2c(N)ncnc21

Result:
84
102

Please look at the items below and tell me residual activity for each one, in order.
1. CNC(=O)C1[C@H]2O[C@@](C)([C@@H]1N)n1c3ccccc3c3c4c(c5c6ccccc6n2c5c31)C(=O)NC4 (some centres undefined)
2. CCNc1nc(Nc2cc(F)c(C(=O)N3CCOCC3)cc2OC)ncc1C(F)(F)F
3. COc1cc(O)c2c(c1)[C@H]1OC1C[C@H](O)[C@H](O)C(=O)/C=C\C[C@H](C)OC2=O (some centres undefined)
4. NS(=O)(=O)OC[C@@H]1C[C@@H](n2ccc3c(N[C@H]4CCc5ccccc54)ncnc32)C[C@@H]1O
5. Nc1cccc2c1CN(C1CCC(=O)NC1=O)C2=O (centres undefined)
6. CNc1nc(-c2ccc3c(N)n[nH]c3c2)cc(N2C[C@@H](C(=O)NC3CCCCC3)CC[C@H]2C)n1
7. Oc1ccc2ccccc2c1SSc1c(O)ccc2ccccc12
8. Cc1cccc(Nc2nn(C)c3ncnc(N)c23)c1

Result:
9
85
102
87
102
91
5
90

Please look at the items below and tell me residual activity for each one, in order.
1. COc1cc(C(=O)N2CCOCC2)c(F)cc1Nc1ncc(C(F)(F)F)c(NC2CC2)n1
2. Cc1ccc(=O)n(-c2ccccc2)c1
3. c1ccc2c(-c3cnn4cc(-c5ccc(N6CCNCC6)cc5)cnc34)ccnc2c1
4. O=C(Nc1ccccc1-c1cn2c(CN3CCNCC3)csc2n1)c1cnc2ccccc2n1
5. COc1cc2ncn(-c3cc(OCc4ccccc4S(C)(=O)=O)c(C#N)s3)c2cc1OC
6. Oc1ccc(/C=C/c2cc(O)cc(O)c2)cc1
7. NC(=O)Nc1ccc2c(c1)/C(=C/c1cc(-c3cccnc3)c[nH]1)C(=O)N2

Result:
[111, 112, 104, 96, 19, 84, 2]
